- System: KCHSC (kochia)
- ASSAY_INFO: Post-Emergent Test III (Wheat and Barley)
- Assay type: in vivo, Kochia scoparia
- TEST_SETTINGS: Bassia scoparia, post-emergence, 504 h; 140 g ai/ha, postemergence; read-out: Visual Growth Reduction (%) 21 Days After Application, KCHSC
QUANTITY_MEASURED: pest or weed control at 140 g/ha

COMPOUND_STRUCTURE_STRING	TGT	pest or weed control at 140 g/ha
COC(=O)c1nc(-c2ccc(Cl)c(F)c2OC)cc(N)c1Cl	KCHSC (kochia)	95 to 100%
Cc1c(-c2cc(N)c(Cl)c(C(=O)O)n2)ccc(Cl)c1F	KCHSC (kochia)	95 to 100%
Nc1c(F)c(-c2ccc(C(F)(F)F)nc2)nc(C(=O)O)c1Cl	KCHSC (kochia)	85 to 94%
Nc1c(F)c(-c2ccc(OC(F)F)nc2)nc(C(=O)O)c1Cl	KCHSC (kochia)	60 to 74%

Provide pest or weed control at 140 g/ha for all items below, preserving their order.
1. COC(=O)c1nc(-c2ccc(Cl)c(F)c2C)cc(N)c1Cl
2. COC(=O)c1nc(-c2ccc(C3CC3)nc2)c(F)c(N)c1Cl
3. COC(=O)c1nc(-c2ccc(OC(F)F)nc2)c(F)c(N)c1Cl
4. COC(=O)c1nc(-c2ccc(Cl)c(F)c2OC)c(F)c(N)c1Cl
5. Nc1c(Cl)c(C(=O)O)nc(-c2ccc(C(F)(F)F)nc2)c1Cl

A:
1: 95 to 100%; 2: 85 to 94%; 3: 60 to 74%; 4: 95 to 100%; 5: 60 to 74%

###

- System: Key Grass and Sedge Weeds as well as Grass Crops
- ASSAY_INFO: Post-Emergent Test II (Table 6)
- Type: in vivo
- TEST_SETTINGS: post-emergence, 336 h, CYPSS, 70 g ai/ha, 14 days after application, read-out: Visual Growth Reduction (%) 14 Days After Application CYPSS
- Description: Seeds or nutlets of the desired test plant species were planted in Sun Gro Metro-Mix® 360 planting mixture, which typically has a pH of 6.0 to 6.8 and an organic matter content of about 30 percent, in plastic pots with a surface area of 64 square centimeters. […] A weighed amount, determined by the highest rate to be tested, of each test compound was placed in a 25 mL glass vial and was dissolved in 4 mL of a 97:3 v/v mixture of acetone and DMSO to obtain concentrated stock solutions. […]
QUANTITY_MEASURED: pest or weed control at 70 g/ha

Some solved entries appear below for comparison.
COMPOUND_STRUCTURE_STRING	pest or weed control at 70 g/ha
COC(=O)c1nc(-c2ccc(OC(F)F)nc2)c(F)c(N)c1Cl	0 to 29%
COC(=O)c1nc(-c2cccnc2)c(F)c(N)c1Cl	0 to 29%

Provide pest or weed control at 70 g/ha for all items below, preserving their order.
1. Nc1cc(-c2ccc(Cl)c(F)c2CO)nc(C(=O)O)c1Cl
2. COc1c(N)nc(-c2ccc(Cl)c(F)c2C)nc1C(=O)O
3. COC(=O)c1nc(-c2ccc(Cl)c(F)c2C)c(Cl)c(N)c1Cl
4. COC(=O)c1nc(-c2ccc(I)nc2)c(F)c(N)c1Cl

A:
1. 0 to 29%
2. 0 to 29%
3. 0 to 29%
4. 75 to 84%

Provide pest or weed control at 70 g/ha for all items below, preserving their order.
1. Cc1c(-c2nc(C(=O)O)c(Cl)c(N)c2F)ccc(Cl)c1F
2. COC(=O)c1nc(-c2ccc(C(F)(F)F)nc2OC)c(F)c(N)c1Cl
3. C=Cc1c(-c2cc(N)c(Cl)c(C(=O)OC)n2)ccc(Cl)c1F
4. Cc1c(-c2cc(N)c(Cl)c(C(=O)O)n2)ccc(Cl)c1F
5. COc1ccc(-c2nc(C(=O)O)c(Cl)c(N)c2F)cn1
6. COC(=O)c1nc(-c2ccc(Cl)c(F)c2C(F)F)cc(N)c1Cl
7. Nc1cc(-c2ccc(Cl)c(F)c2CF)nc(C(=O)O)c1Cl

A:
1: 0 to 29%; 2: 0 to 29%; 3: 95 to 100%; 4: 85 to 94%; 5: 0 to 29%; 6: 0 to 29%; 7: 0 to 29%

Provide pest or weed control at 70 g/ha for all items below, preserving their order.
1. COC(=O)c1nc(-c2ccc(C(F)(F)F)nc2)nc(N)c1OC
2. C#Cc1c(-c2cc(N)c(Cl)c(C(=O)OC)n2)ccc(Cl)c1F
3. COC(=O)c1nc(-c2ccc(Cl)c(F)c2C)nc(N)c1OC
4. COc1c(-c2cc(N)c(Cl)c(C(=O)O)n2)ccc(Cl)c1F

A:
["0 to 29%", "0 to 29%", "0 to 29%", "0 to 29%"]

Provide pest or weed control at 70 g/ha for all items below, preserving their order.
1. COC(=O)c1nc(-c2ccc(Cl)c(F)c2C)nc(N)c1Cl
2. COC(=O)c1nc(-c2ccc(Cl)nc2F)c(F)c(N)c1Cl
3. COC(=O)c1nc(-c2ccc(C(F)(F)F)nc2)nc(N)c1Cl
4. Cc1c(-c2cc(N)c(Cl)c(C(=O)O)n2)ccc(Cl)c1Cl
5. CCc1c(-c2cc(N)c(Cl)c(C(=O)O)n2)ccc(Cl)c1F
6. COc1nc(Cl)ccc1-c1cc(N)c(Cl)c(C(=O)O)n1
7. COC(=O)c1nc(-c2ccc(Cl)c(F)c2C)cc(N)c1Cl

A:
1: 0 to 29%; 2: 95 to 100%; 3: 0 to 29%; 4: 0 to 29%; 5: 0 to 29%; 6: 0 to 29%; 7: 95 to 100%

Provide pest or weed control at 70 g/ha for all items below, preserving their order.
1. COC(=O)c1nc(-c2ccc(C3CC3)nc2)c(F)c(N)c1Cl
2. C=Cc1c(-c2cc(N)c(Cl)c(C(=O)O)n2)ccc(Cl)c1F
3. COC(=O)c1nc(-c2ccc(Cl)c(F)c2CO)cc(N)c1Cl
4. Nc1c(Cl)c(C(=O)O)nc(-c2ccc(C(F)(F)F)nc2)c1Cl
5. Nc1c(F)c(-c2ccc(C(F)(F)F)nc2)nc(C(=O)O)c1Cl
6. COC(=O)c1nc(-c2ccc(C(F)(F)F)c(F)c2C)c(F)c(N)c1Cl
7. COC(=O)c1nc(-c2ccc(Cl)c(Cl)c2C)cc(N)c1Cl

A:
["95 to 100%", "0 to 29%", "0 to 29%", "95 to 100%", "95 to 100%", "0 to 29%", "0 to 29%"]

Provide pest or weed control at 70 g/ha for all items below, preserving their order.
1. Nc1c(F)c(-c2ccc(Br)nc2)nc(C(=O)O)c1Cl
2. Cc1c(-c2cc(N)c(Cl)c(C(=O)O)n2)ccc(F)c1F
3. Nc1c(F)c(-c2ccc(OC(F)F)nc2)nc(C(=O)O)c1Cl

A:
["95 to 100%", "0 to 29%", "45 to 59%"]

Provide pest or weed control at 70 g/ha for all items below, preserving their order.
1. COC(=O)c1nc(-c2ccc(Cl)nc2F)nc(N)c1Cl
2. COC(=O)c1nc(-c2ccc(Cl)c(F)c2C(=O)O)cc(N)c1Cl
3. COC(=O)c1nc(-c2ccc(OC)nc2Cl)c(F)c(N)c1Cl
4. COC(=O)c1nc(-c2ccc(C(F)(F)F)c(F)c2C)cc(N)c1Cl

A:
0 to 29%
0 to 29%
0 to 29%
95 to 100%
